assay: folding stability dG unfold from trypsin proteolysis; higher = more stable
observable: folding stability dG unfold (kcal/mol)
I only need the number, in kcal/mol, no unit after it.

INSERT INTO results (query_sequence, recorded_result) VALUES
  ('SAGGSAGGSAGGTITLPGGAEVTEVERLPGGVLKITGVLTLPGGPVTVEVTLPVTPELLESAGGSAGGSAGG [r7_38_JUSTAS]', 0.772),
  ('SKKVEIKIKVERNEDGYLTVTIEIRAETEEELLEAAKELAKALFPEDVEIRVEKLPDGTVKITIVVKLPPSA [r9_646_TrROS_Hall]', 2.65),
  ('SAGKKKKITIEIVIKPKTLEELENKIKEIAKKLGLKKIEKIEIVKIEKDKNGKIKKVVIKITLTEEALKSAG [r5_575_TrROS_Hall]', 1.51),
  ('SAGGSAGGKTIEITIKLEDGKELKIKIDSPEELDKITSVELIGPGKIKITVNGKTIEITIKPKPSAGGSAGG [r6_206_TrROS_Hall]', 3.45),
  ('SKLVEKIAEEFGISSAMPHPDGQFMIMFPDGYMIKINIEIDEVKPKPDGKPELDLDIEIEIIPMPPPDDMSA [r9_648_TrROS]', 2.05),
  ('SAGKKIDPEALAKRILKEFGLPEDAEVEVEEIENTYIARFPEATALFTIEDDEVTVFLAPARPEPELAGSAG [r5_190_TrMRF]', 0.984),
  ('SAGGSAGGPYMVMIRMPNNPQPIWFPPDEVKEALKEGDEKRIKFPGGGMEMTIRNVDDIEIMPPSAGGSAGG [r6_509_TrROS]', -0.793),
  ('SAGGSLIEKIAKEAGIKVEISKEETNGSPVLTITITKGDKNIVFKDDGKDPEKLVKELAKKIGIKPISAGGS [r8_226_JUSTAS]', 0.499);

Problem: Name the recorded folding stability dG unfold for KRVTIMFNFPPGKPLPLSELAGFARNSGGEVKIQIYNPDDGKWQEITFPGGKIDDVEMFPDGWMVMITVKGS [r1_238_TrROS] .
Result: 2.09

----------
assay: folding stability dG unfold (combined trypsin and chymotrypsin); higher = more stable
sequences and their reported folding stability dG unfold

Illustrative cases are given below, each with its answer.
INSERT INTO assay_data (query_sequence, recorded_result) VALUES
  ('SAGGSAGGSTVEELKKKAKELGLEVTVEKNKKDKKKITITVSEEAKKKLKEIAKEENIKVEIKSAGGSAGGS [r12_74_TrROS_Hall]', '-0.473 kcal/mol'),
  ('SAGGSAGGSAGGGMSTAVLKIDDKWVPVRIYPDSVVIEYPDGSTKTISLSEIPENLIELPSAGGSAGGSAGG [r7_748_JUSTAS]', '1.43 kcal/mol'),
  ('SAGGSAGGSAGEFEPVPVLTLPGLDDREVRVVLFKDPPLVLLEVEGAPYVLPAEELLRLASAGGSAGGSAGG [r11_370_TrMRF]', '0.856 kcal/mol'),
  ('SAGGSAMTLEDLKDEFVVITLPDGTVVKAKVEEVDTKGPVLTILVGGKPILIPADAPVKIEIEPPKSAGGSA [r15_355_JUSTAS]', '1.53 kcal/mol'),
  ('SAGTVRLEVTVVIKLTKEQIENLPKDVKLEDGAEIEEKDDYLVIKRTIELPPPVVTDKDGKKLPLEELSAGG [r19_148_TrROS_Hall]', '0.938 kcal/mol');

Problem: Name the recorded folding stability dG unfold for SAGGSAGGAEIVEIEVRKEKRPDGKEVLTVKVKIKLENGEEIEVTVREGMTLEEALKKAKELLKSAGGSAGG [r6_986_TrROS_Hall] .
Result: 2.56 kcal/mol

Problem: Please give the result for SAGGSAGGSARIDFPAIRRLLGSEAPAEDVVEAVEVIAKELAEELNLPDVEVDPRVVAPDELESAGGSAGGS [r12_666_TrMRF] too.
Result: 0.102 kcal/mol

Problem: Please give the result for SAGGSAGGKKKKKPPKKKYFYVEIEIELTPEEIEKLKELFPDVKVEVEEKDGKLRVRITVRVKLSAGGSAGG [r6_685_TrROS_Hall] too.
Result: 3.26 kcal/mol

Problem: Please give the result for SAGGSATKELVLEIAEEIAPRFQKEGWPIKRVTVKVVRTPDGQVTIPVRIRFPDGKPIMQWNITIPSAGGSA [r15_232_TrROS] too.
Result: 0.779 kcal/mol

Problem: Please give the result for SAGGSAGGSAGPALRIPFLVERPDGSPFWAEARVYEDGTVELRIYGDEPIATFTFPLDELSAGGSAGGSAGG [r11_327_TrMRF] too.
Result: 1.68 kcal/mol

Problem: Please give the result for SAGGSAGGGMSLEAPIGEIEKPEGTDTVVITVYENGKWHTIPLPNFKNIKIEKDPNSDVVTILLSAGGSAGG [r6_806_JUSTAS] too.
Result: 1.52 kcal/mol

----------
test: folding stability dG unfold from chymotrypsin proteolysis; higher = more stable
observable: folding stability dG unfold (kcal/mol)
I only need the number, in kcal/mol, no unit after it.

INSERT INTO measurements (query_sequence, recorded_result) VALUES
  ('SAGGSAGGSAGKPNIKKEANLEIFVTEDELEKALEIVKKLEEEGIEVKEAKIYVLKPEEGSAGGSAGGSAGG [r11_533_TrMRF]', -0.299);

--- query ---
Problem: Name the recorded folding stability dG unfold for SAGGKKNKPKPKVKVKILSVTANPDPNTPGLLSVSVPVLIESDDEEFALALAKELAKLPNVKVVVLGGSAGG [r13_606_TrMRF] .
Result: 1.42

----------
assay: folding stability dG unfold (combined trypsin and chymotrypsin); higher = more stable
sequences and their reported folding stability dG unfold

Problem: Name the recorded folding stability dG unfold for SAGGSAGGSASVVADENKIVVTFPNGKVVELDLSDPKKAKEKLLALKPLDIPPITLELVPPASAGGSAGGSA [r18_68_JUSTAS] .
Result: 0.572 kcal/mol

Problem: Please give the result for SAGGSAGGSNKLVKELAKDPNIKSIFVDTKNKKVYILTDNYLIVIDKNGKIEKIEPISPEKLKSAGGSAGGS [r12_895_TrMRF] too.
Result: 1.16 kcal/mol

Problem: Please give the result for DNMDMEPEGYDPDNGHYEWEMRTDNQWTEMTMRPKPRIPIPLEELKNIADYLADQNPDNKEKAEKIAEKLAS [r1_330_TrROS] too.
Result: < -1 kcal/mol

Problem: Please give the result for SAGGSAGGSAGGSVSSVSTTSSPVVDPETGPASTVTTHSVPGGPATTVVMTPDSTTTTGSAGGSAGGSAGGS [r10_384_JUSTAS] too.
Result: 1.59 kcal/mol

Problem: Please give the result for SAGGNIPPGETWKIKFPGKPIEIQMQQINGKPMYRLRDKNNKPHGTMTPDEADEFLDKLPPNWEIERYSAGG [r13_657_TrROS] too.
Result: -0.353 kcal/mol

Problem: Please give the result for SRDLLKELAEKFPNFEPKGVQEEPTDNGGVKLQVIARHPKNGRYYKIEITVPPDGKIEDIEIEPVPLDDLSA [r9_274_TrROS] too.
Result: 2.61 kcal/mol

Problem: Please give the result for SAGGGVTLTVDVRSKSGGSPEKFTLTLPVAVDPAGSADLDAARAAVAAALPPEAEVLELSLLPPDVPASAGG [r13_504_JUSTAS] too.
Result: < -1 kcal/mol

----------
test: folding stability dG unfold from trypsin proteolysis; higher = more stable
observable: folding stability dG unfold (kcal/mol)
I only need the number, in kcal/mol, no unit after it.

Illustrative cases are given below, each with its answer.
INSERT INTO assay_data (query_sequence, recorded_result) VALUES
  ('SAGGSAGGPLVVILPDPETGLFHVRVRYPDGTVESLGPFPSLEEALEALPSEGLGRVEVRPYLKSAGGSAGG [r6_307_TrMRF]', 1.05),
  ('SAGGSAEEAEELARRLAAELQAETGLEVTVEVRYDEETDTVVIRMTVRDRATGEERTLELTLRLPDSAGGSA [r15_464_TrROS_Hall]', 3.04);

Problem: Name the recorded folding stability dG unfold for SAGGSAGGDALKELIKNMPPGEPRKITIPIKYEDGRYYRIDIEIQMNPNNGEWQLDIDIEPYPPSAGGSAGG [r6_545_TrROS] .
Result: 0.881

Problem: Please give the result for SDVNIKPEKVDPNGIFTVEIPVDNNNVDKLREIINEIFPNFEPTEVKPNPESGYHEIIMRVPDGKAFEFSSA [r9_1164_TrROS] too.
Result: -0.141

Problem: Please give the result for SAGGMKTLKIKIKVPEDEEKAEELAKKLEELFGLKVEVEKKDGELTITVEVSEEVRELLKELGVEIEPSAGG [r13_156_TrROS_Hall] too.
Result: 2.58

Problem: Please give the result for SAGGMIAEIKPIPPNVPDGATATITFPDGTPAEAELRTEPLEDGPRRVVLKLKGKEGEIELEFVLPLSAGGS [r8_360_TrMRF] too.
Result: 0.16

Problem: Please give the result for SAGGSAGGSMVLIEIYFKGPEKPIVFPAEGPEEVVEKLLELVEENPELGLDNIAEIRAYPGEESAGGSAGGS [r12_852_TrMRF] too.
Result: 0.425

FYI, the data here is from the supplement of paper PMC12764529.
